Biological target: T1, Fc fused human IL-18Rα (human, UniProt Q13478 19-329, limits assumed)
T1 construct: also called IL-18Rα monomer; human IL-18 receptor alpha (CD218a); not shown: Fc
T1 sequence (looked up): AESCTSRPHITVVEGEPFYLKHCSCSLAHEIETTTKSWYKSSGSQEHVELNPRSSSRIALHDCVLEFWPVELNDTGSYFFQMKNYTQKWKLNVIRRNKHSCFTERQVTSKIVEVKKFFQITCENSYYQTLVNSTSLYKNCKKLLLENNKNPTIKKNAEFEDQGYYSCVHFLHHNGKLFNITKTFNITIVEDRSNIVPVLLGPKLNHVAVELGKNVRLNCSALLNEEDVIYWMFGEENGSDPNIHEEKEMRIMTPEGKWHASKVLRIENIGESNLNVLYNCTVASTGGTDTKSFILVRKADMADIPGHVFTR
Experiment: SPR, Fc-IL-18Rα captured, 1:1 fit
Quick reference: koff of the listed items.
ENDPOINT NAME: koff (s⁻¹)

BINDER	QUANTITY UNIT	RECORDED MEASUREMENT
IL-18 variant SEQ ID NO: 61 (E6K, C38A, K53A, C76A) (ligand) YFGKLKSKLSVIRNLNDQVLFIDQGNRPLFEDMTDSDARDNAPRTIFIISMYADSQPRGMAVTISVKCEKISTLSAENKIISFKEMNPPDNIKDTKSDIIFFQRSVPGHDNKMQFESSSYEGYFLACEKERDLFKLILKKEDELGDRSIMFTVQNED	s⁻¹	0.0674
IL-18 variant SEQ ID NO: 62 (E6K, C38A, K53A, C127A) (ligand) YFGKLKSKLSVIRNLNDQVLFIDQGNRPLFEDMTDSDARDNAPRTIFIISMYADSQPRGMAVTISVKCEKISTLSCENKIISFKEMNPPDNIKDTKSDIIFFQRSVPGHDNKMQFESSSYEGYFLAAEKERDLFKLILKKEDELGDRSIMFTVQNED	s⁻¹	0.0424
IL-18 variant SEQ ID NO: 59 with 30 kDa PEG (E6K, C38A, K53A, C68-30kDPEG) (ligand, 30 kDa PEG on Cys 68 (C68-30kDPEG), also called 59 + PEG30; 59 + PEG) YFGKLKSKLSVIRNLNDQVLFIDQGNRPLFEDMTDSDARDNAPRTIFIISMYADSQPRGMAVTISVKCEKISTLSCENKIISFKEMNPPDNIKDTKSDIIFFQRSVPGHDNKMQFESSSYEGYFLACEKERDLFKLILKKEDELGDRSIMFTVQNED	s⁻¹	0.0264
IL-18 variant SEQ ID NO: 57 with 30 kDa PEG (E6K, C38S, K53A, C68-30kDPEG) (ligand, 30 kDa PEG on Cys 68 (C68-30kDPEG), also called 57 + PEG30; 57 + PEG) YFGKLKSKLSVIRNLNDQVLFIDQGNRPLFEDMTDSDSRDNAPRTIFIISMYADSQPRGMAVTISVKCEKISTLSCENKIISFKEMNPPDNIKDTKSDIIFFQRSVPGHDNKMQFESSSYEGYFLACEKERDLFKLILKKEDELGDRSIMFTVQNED	s⁻¹	0.0267
IL-18 variant SEQ ID NO: 30 with 5 kDa PEG (E6K, V11I, C38A, K53A, T63A, C76A, C127A, C68-5kPEG) (ligand, 5 kDa PEG on Cys 68 (C68-5kPEG), also called 30 + PEG5) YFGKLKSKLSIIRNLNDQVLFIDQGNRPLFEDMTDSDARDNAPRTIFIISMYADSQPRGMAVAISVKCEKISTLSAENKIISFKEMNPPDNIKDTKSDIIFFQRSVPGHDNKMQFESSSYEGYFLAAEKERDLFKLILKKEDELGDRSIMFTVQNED	s⁻¹	0.0748
IL-18 variant SEQ ID NO: 30 with 20 kDa PEG (E6K, V11I, C38A, K53A, T63A, C76A, C127A, C68-20kPEG) (ligand, 20 kDa PEG on Cys 68 (C68-20kPEG), also called 30 + PEG20) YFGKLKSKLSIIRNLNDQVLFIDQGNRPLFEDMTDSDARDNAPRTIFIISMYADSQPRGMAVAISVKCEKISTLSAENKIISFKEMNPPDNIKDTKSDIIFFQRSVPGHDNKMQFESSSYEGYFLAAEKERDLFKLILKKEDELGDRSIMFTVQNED	s⁻¹	0.0805
IL-18 variant SEQ ID NO: 60 (E6K, C38Q, K53A) (ligand) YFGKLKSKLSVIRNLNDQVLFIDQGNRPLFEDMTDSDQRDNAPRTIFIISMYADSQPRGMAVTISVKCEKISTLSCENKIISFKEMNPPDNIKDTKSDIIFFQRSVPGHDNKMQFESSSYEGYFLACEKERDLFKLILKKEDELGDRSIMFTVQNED	s⁻¹	0.0102
IL-18 variant SEQ ID NO: 61 with 30 kDa PEG (E6K, C38A, K53A, C76A, C68-30kPEG) (ligand, 30 kDa PEG on Cys 68 (C68-30kPEG), also called 61 + PEG) YFGKLKSKLSVIRNLNDQVLFIDQGNRPLFEDMTDSDARDNAPRTIFIISMYADSQPRGMAVTISVKCEKISTLSAENKIISFKEMNPPDNIKDTKSDIIFFQRSVPGHDNKMQFESSSYEGYFLACEKERDLFKLILKKEDELGDRSIMFTVQNED	s⁻¹	0.0288
IL-18 variant SEQ ID NO: 60 with 30 kDa PEG (E6K, C38Q, K53A, C68-30kPEG) (ligand, 30 kDa PEG on Cys 68 (C68-30kPEG), also called 60 + PEG) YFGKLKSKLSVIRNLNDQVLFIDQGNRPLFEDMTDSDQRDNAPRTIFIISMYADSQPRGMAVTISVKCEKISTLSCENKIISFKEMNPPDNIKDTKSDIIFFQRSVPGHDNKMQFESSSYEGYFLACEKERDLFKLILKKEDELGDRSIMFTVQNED	s⁻¹	0.0195
